Entry source: patent US20240182536A1

# Tgt: T1, IL-18 binding protein (IL-18BP) (UniProt O95998 31-194)
# T1 sequence (looked up): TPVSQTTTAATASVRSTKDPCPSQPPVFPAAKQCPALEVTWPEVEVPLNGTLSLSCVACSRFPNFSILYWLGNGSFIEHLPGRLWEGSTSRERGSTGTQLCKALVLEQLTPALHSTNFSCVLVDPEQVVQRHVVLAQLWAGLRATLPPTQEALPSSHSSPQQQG
# Assay Overview: cell-based or functional assay; further: unit not given here
Label yes when Activity, +100 nM BP, DF-25000004 is strictly below 0.08; otherwise label no.

1) IL-18 variant G3L, E6Q, T63S, N91L, R104P (ligand) YFLKLQSKLSVIRNLNDQVLFIDQGNRPLFEDMTDSDMRDNAPRTIFIISMYKDSQPRGMAVSISVKSEKISTLSSENKIISFKEMNPPDLIKDTKSDIIFFQPSVPGHDNKMQFESSSYEGYFLASEKERDLFKLILKKEDELGDRSIMFTVQNED ... yes
2) IL-18 variant G3I, E6Q, N91M, R104Y (ligand) YFIKLQSKLSVIRNLNDQVLFIDQGNRPLFEDMTDSDMRDNAPRTIFIISMYKDSQPRGMAVTISVKSEKISTLSSENKIISFKEMNPPDMIKDTKSDIIFFQYSVPGHDNKMQFESSSYEGYFLASEKERDLFKLILKKEDELGDRSIMFTVQNED ... no
3) IL-18 variant G3Q, E6K, D54S, S55P, T63S, N91S, R104Q (ligand) YFQKLKSKLSVIRNLNDQVLFIDQGNRPLFEDMTDSDMRDNAPRTIFIISMYKSPQPRGMAVSISVKSEKISTLSSENKIISFKEMNPPDSIKDTKSDIIFFQQSVPGHDNKMQFESSSYEGYFLASEKERDLFKLILKKEDELGDRSIMFTVQNED ... no
4) IL-18 variant G3P, E6S, K53N, D54Y, S55P, T63I, N91K, R104H (ligand) YFPKLSSKLSVIRNLNDQVLFIDQGNRPLFEDMTDSDMRDNAPRTIFIISMYNYPQPRGMAVIISVKSEKISTLSSENKIISFKEMNPPDKIKDTKSDIIFFQHSVPGHDNKMQFESSSYEGYFLASEKERDLFKLILKKEDELGDRSIMFTVQNED ... yes
5) IL-18 variant G3D, E6G, K53G, D54A, T63S, N91Y, R104Q (ligand) YFDKLGSKLSVIRNLNDQVLFIDQGNRPLFEDMTDSDMRDNAPRTIFIISMYGASQPRGMAVSISVKSEKISTLSSENKIISFKEMNPPDYIKDTKSDIIFFQQSVPGHDNKMQFESSSYEGYFLASEKERDLFKLILKKEDELGDRSIMFTVQNED ... no

Report whether reported Activity, +100 nM BP, DF-25000004 is lower than 0.08 (strictly) for IL-18 variant G3Y, E6S, K53S, D54W, S55L, N91I (ligand) YFYKLSSKLSVIRNLNDQVLFIDQGNRPLFEDMTDSDMRDNAPRTIFIISMYSWLQPRGMAVTISVKSEKISTLSSENKIISFKEMNPPDIIKDTKSDIIFFQRSVPGHDNKMQFESSSYEGYFLASEKERDLFKLILKKEDELGDRSIMFTVQNED
no

Then this binder: IL-18 variant G3S, E6Q, K53S, D54Y, S55H, N91L, R104Q (ligand) YFSKLQSKLSVIRNLNDQVLFIDQGNRPLFEDMTDSDMRDNAPRTIFIISMYSYHQPRGMAVTISVKSEKISTLSSENKIISFKEMNPPDLIKDTKSDIIFFQQSVPGHDNKMQFESSSYEGYFLASEKERDLFKLILKKEDELGDRSIMFTVQNED
no

Record: IL-18 variant G3Q, E6H, K53T, D54S, S55Y, N91Y, R104K (ligand) YFQKLHSKLSVIRNLNDQVLFIDQGNRPLFEDMTDSDMRDNAPRTIFIISMYTSYQPRGMAVTISVKSEKISTLSSENKIISFKEMNPPDYIKDTKSDIIFFQKSVPGHDNKMQFESSSYEGYFLASEKERDLFKLILKKEDELGDRSIMFTVQNED
no

Another binder to look at: IL-18 variant G3P, E6K, K53N, D54S, S55P, T63S, N91S, R104Q (ligand) YFPKLKSKLSVIRNLNDQVLFIDQGNRPLFEDMTDSDMRDNAPRTIFIISMYNSPQPRGMAVSISVKSEKISTLSSENKIISFKEMNPPDSIKDTKSDIIFFQQSVPGHDNKMQFESSSYEGYFLASEKERDLFKLILKKEDELGDRSIMFTVQNED
yes
